# targetEntity: T1, corticotropin releasing factor 2 receptor
# T1 sequence (Q13324 whole entry, species assumed, looked up): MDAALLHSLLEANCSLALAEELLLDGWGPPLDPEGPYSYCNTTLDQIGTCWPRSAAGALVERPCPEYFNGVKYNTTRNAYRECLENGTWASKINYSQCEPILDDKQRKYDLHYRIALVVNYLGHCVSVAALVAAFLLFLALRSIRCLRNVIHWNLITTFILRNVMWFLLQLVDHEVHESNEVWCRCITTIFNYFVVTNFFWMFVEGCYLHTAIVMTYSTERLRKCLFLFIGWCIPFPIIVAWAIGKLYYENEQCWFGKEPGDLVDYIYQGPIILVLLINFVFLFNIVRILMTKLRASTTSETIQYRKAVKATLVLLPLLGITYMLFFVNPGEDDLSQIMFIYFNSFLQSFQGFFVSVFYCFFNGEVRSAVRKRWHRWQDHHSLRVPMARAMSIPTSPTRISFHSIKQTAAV
# assayProtocol: cell-based or functional assay
Ends that are not written are not given here.
// values below are reported CRF2R EC50
Provide the reading as a plain figure in nM.

Solved entries (count: 3):
Task: Record request: CRF2R EC50 value, item HHHHHHIVLSLDVPIGLLQILLEQARARAAREQATTNARILARN-NH2 [SEQ ID NO 296]
Result: 6.66

Task: Record request: CRF2R EC50 value, item ZGPPISIDVPLQLLRKVIEIEKQEKEKQQAANNARLLDTI (C-terminal amide) [SEQ ID NO 380]
Result: 19

Task: Record request: CRF2R EC50 value, item ZGPPISIDVPTYLLRKMIEIEKQEKEKQQAANNRLLLDTI (C-terminal amide) [SEQ ID NO 253]
Result: 41.8

---
Task: Record request: CRF2R EC50 value, item ZGPPISIDVPYWLLRKVIEIEKQEKEKQQAANNARLLARI (C-terminal amide) [SEQ ID NO 373]
Result: 11.5

Task: Record request: CRF2R EC50 value, item DNPSLSIDLPLLLLRTLLELEKTQSQRERAEQNAQIFAQV-NH2 [SEQ ID NO 327]
Result: 28.4

Task: Record request: CRF2R EC50 value, item ZGPPISIDLPLQLLRKMIEIEKQEKEKQQAANNALLLDTI (C-terminal amide) [SEQ ID NO 248]
Result: 19.6
